target: Neuronal acetylcholine receptor subunit alpha-7 (Rattus norvegicus, UniProt Q05941); experiment: Displacement of [3H]epibatidine from rat alpha7 nAChR transfected in HEK293 cells by liquid scintillation counting
Sequence (Q05941 whole entry): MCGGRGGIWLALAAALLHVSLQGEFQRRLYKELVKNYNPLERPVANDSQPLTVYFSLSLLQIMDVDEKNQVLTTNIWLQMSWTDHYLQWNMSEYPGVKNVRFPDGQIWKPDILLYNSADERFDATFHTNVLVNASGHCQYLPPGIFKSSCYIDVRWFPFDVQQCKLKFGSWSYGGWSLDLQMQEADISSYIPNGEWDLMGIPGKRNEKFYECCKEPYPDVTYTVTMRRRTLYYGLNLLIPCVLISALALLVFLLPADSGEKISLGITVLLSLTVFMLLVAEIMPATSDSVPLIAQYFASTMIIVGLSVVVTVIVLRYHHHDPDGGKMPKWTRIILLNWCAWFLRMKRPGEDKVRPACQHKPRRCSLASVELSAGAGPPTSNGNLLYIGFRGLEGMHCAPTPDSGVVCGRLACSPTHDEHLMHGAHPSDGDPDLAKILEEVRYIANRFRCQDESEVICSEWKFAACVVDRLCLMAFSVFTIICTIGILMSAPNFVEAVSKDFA
Quantity name: pKi
Answers are plain numbers, as −log10 of the molar value.

Chemical structure | pKi
O=C(CCCCN1CCOCC1)Nc1cc(-c2ccccc2)[nH]n1 | 5.59
O=C(CCCCN1CCOCC1)Nc1ccc(-c2ccc3[nH]ccc3c2)cc1 | 6.51

In one line, give reported pKi of the entry O=C(CCCCN1CCOCC1)Nc1ccc(-c2ccncc2)cc1 .
6.46

---

Kindly state Ki for each of the entries shown.
biological target: Neuronal acetylcholine receptor subunit alpha-7 (Rattus norvegicus, UniProt Q05941); test: Displacement of [3H]epibatidine from rat alpha7 nAChR transfected in HEK293 cells by liquid scintillation counting

Chemical structure | Assay system | Ki
CN1CCN(CCCCNC(=O)c2ccc(-c3cccnc3)cc2)CC1 | Neuronal acetylcholine receptor subunit alpha-7 (Rattus norvegicus, UniProt Q05941) | > 10 µM
c1ccc(-c2ccc(N3CCOCC3)cc2)cc1 | Neuronal acetylcholine receptor subunit alpha-7 (Rattus norvegicus, UniProt Q05941) | > 10 µM
c1cncc(-c2ccc(N3CCOCC3)cc2)c1 | Neuronal acetylcholine receptor subunit alpha-7 (Rattus norvegicus, UniProt Q05941) | > 10 µM
O=C(CCCCN1CCCCC1)Nc1ccc(-c2cccnc2)cc1 | Neuronal acetylcholine receptor subunit alpha-7 (Rattus norvegicus, UniProt Q05941) | 0.22 µM
CN1CCN(c2ccc(-c3cccnc3)cc2)CC1 | Neuronal acetylcholine receptor subunit alpha-7 (Rattus norvegicus, UniProt Q05941) | 9.4 µM
CN1CCN(c2ccc(-c3ccccc3)cc2)CC1 | Neuronal acetylcholine receptor subunit alpha-7 (Rattus norvegicus, UniProt Q05941) | 7.7 µM
O=C(NCCCCN1CCCCC1)c1ccc(-c2cccnc2)cc1 | Neuronal acetylcholine receptor subunit alpha-7 (Rattus norvegicus, UniProt Q05941) | 1.4 µM
CN1C[C@@H]2C[C@H]1CN2CCCCC(=O)Nc1ccc(-c2ccccc2)cc1 | Neuronal acetylcholine receptor subunit alpha-7 (Rattus norvegicus, UniProt Q05941) | 3.2 µM
CN1CCN(CCCCC(=O)Nc2cc(-c3ccccc3)[nH]n2)CC1 | Neuronal acetylcholine receptor subunit alpha-7 (Rattus norvegicus, UniProt Q05941) | > 10 µM
CN1CCN(CCCCC(=O)Nc2ccc(-c3ccccc3)cc2)CC1 | Neuronal acetylcholine receptor subunit alpha-7 (Rattus norvegicus, UniProt Q05941) | 1.62 µM

Each molecule below has a reported value. Please supply its Ki.
1. O=C(CCCCN1CCOCC1)Nc1ccc(-c2ccccn2)cc1
2. c1cc2cc(-c3ccc(N4CCOCC4)nn3)ccc2[nH]1

["0.33 µM", "> 10 µM"]

---

biological target: Neuronal acetylcholine receptor subunit alpha-7 (Rattus norvegicus); assay: Displacement of [3H]epibatidine from rat alpha7 nAChR transfected in HEK293 cells by liquid scintillation counting
Quantity name: Ki

Chemical structure | Ki
O=C(CCCCN1CCOCC1)Nc1ccc(-c2cccnc2F)cc1 | 0.085 µM

Hello, I would appreciate it if you could give Ki for each entry below.
1. c1cncc(-c2ccc(N3CCCCC3)cc2)c1
2. c1ccc(-c2ccc(N3CCOCC3)nn2)cc1

1: > 10 µM; 2: > 10 µM

Below are 2 compounds. Give each one its Ki.
1. O=C(CCCCN1CCOCC1)Nc1ccc(-c2ccccc2)nn1
2. CN1C[C@@H]2C[C@H]1CN2CCCCNC(=O)c1ccc(-c2ccccc2)cc1

["> 10 µM", "6.1 µM"]

# return recorded Ki for entry CN1CCN(CCCCNC(=O)c2ccc(-c3ccccc3)cc2)CC1
5.4 µM

---

molecular target: Neuronal acetylcholine receptor subunit alpha-7 (Rattus norvegicus); experiment: Displacement of [3H]epibatidine from rat alpha7 nAChR transfected in HEK293 cells by liquid scintillation counting
Exercise: for every item that follows, state its recorded log10(Ki).
Note: values are log10 of Ki expressed in nM.

Chemical structure | log10(Ki)
O=C(CCCCN1CCCCC1)Nc1ccc(-c2ccccc2)cc1 | 2.28

// for each molecule below, give its log10(Ki)
1. CN1CCN(CCCCC(=O)Nc2ccc(-c3cccnc3)cc2)CC1
2. CN1C[C@@H]2C[C@H]1CN2c1ccc(-c2cccnc2)cc1
3. CN1C[C@@H]2C[C@H]1CN2c1ccc(-c2ccccc2)cc1

3.97
2.15
1.53

Using the record for O=C(NCCCCN1CCCCC1)c1ccc(-c2ccccc2)cc1 , state its measured log10(Ki).
2.61

---

biological target: Neuronal acetylcholine receptor; alpha3/beta4 (Rattus norvegicus, UniProt P04757+P12392); experiment: Displacement of [3H]epibatidine from rat alpha3beta4 nAChR transfected in HEK293 cells by liquid scintillation counting; type: cell-based
Sequence (P04757 whole entry): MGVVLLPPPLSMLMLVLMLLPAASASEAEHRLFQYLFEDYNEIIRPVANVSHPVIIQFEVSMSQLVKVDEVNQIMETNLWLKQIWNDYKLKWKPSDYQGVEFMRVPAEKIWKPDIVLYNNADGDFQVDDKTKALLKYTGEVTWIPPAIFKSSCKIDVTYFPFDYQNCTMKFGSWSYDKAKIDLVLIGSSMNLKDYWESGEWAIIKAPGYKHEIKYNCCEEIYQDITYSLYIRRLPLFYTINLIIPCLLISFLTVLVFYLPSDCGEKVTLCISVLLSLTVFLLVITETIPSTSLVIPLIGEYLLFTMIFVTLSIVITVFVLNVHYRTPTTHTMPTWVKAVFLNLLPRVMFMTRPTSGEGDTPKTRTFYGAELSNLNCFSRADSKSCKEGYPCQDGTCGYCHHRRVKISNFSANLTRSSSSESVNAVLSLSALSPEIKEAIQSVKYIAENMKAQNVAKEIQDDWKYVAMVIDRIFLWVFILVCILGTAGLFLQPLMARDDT
Sequence (P12392 whole entry): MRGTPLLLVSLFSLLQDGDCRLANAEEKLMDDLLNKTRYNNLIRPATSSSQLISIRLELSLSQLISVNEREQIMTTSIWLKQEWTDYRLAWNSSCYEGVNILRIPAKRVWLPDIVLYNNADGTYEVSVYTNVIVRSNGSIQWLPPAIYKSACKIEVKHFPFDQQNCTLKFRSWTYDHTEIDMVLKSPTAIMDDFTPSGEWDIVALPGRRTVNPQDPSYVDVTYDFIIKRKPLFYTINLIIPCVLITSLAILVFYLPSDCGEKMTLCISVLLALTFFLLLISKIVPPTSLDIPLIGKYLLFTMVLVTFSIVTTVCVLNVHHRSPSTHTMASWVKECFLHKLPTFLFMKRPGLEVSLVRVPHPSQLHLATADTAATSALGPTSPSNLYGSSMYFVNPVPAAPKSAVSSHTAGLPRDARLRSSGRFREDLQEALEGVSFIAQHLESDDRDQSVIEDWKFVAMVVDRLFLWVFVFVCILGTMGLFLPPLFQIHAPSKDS
Quantity name: Ki

Solved cases below.
Chemical structure | Assay system | Ki
CN1CCN(c2ccc(-c3cccnc3)cc2)CC1 | Neuronal acetylcholine receptor; alpha3/beta4 (Rattus norvegicus, UniProt P04757+P12392) | > 10 µM
CN1CCN(CCCCNC(=O)c2ccc(-c3cccnc3)cc2)CC1 | Neuronal acetylcholine receptor; alpha3/beta4 (Rattus norvegicus, UniProt P04757+P12392) | > 10 µM
CN1CCN(CCCCC(=O)Nc2cc(-c3ccccc3)[nH]n2)CC1 | Neuronal acetylcholine receptor; alpha3/beta4 (Rattus norvegicus, UniProt P04757+P12392) | > 10 µM
CN1C[C@@H]2C[C@H]1CN2c1ccc(-c2cccnc2)cc1 | Neuronal acetylcholine receptor; alpha3/beta4 (Rattus norvegicus, UniProt P04757+P12392) | > 10 µM
c1ccc(-c2ccc(N3CCCCC3)cc2)cc1 | Neuronal acetylcholine receptor; alpha3/beta4 (Rattus norvegicus, UniProt P04757+P12392) | > 10 µM

Output Ki of CN1C[C@@H]2C[C@H]1CN2c1ccc(-c2ccccc2)nn1
> 50 µM

---

target: Neuronal acetylcholine receptor subunit alpha-7 (Rattus norvegicus); test: Agonist activity at rat alpha7 nAChR expressed in GH4C1 cells by fluorescent calcium assay; type: cell-based, GH4-C1
Hi! Could you tag entries with EC50 below 300 nM as TRUE, and those at or above as FALSE? Much appreciated.

Below, 5 compounds whose answers are already recorded.
Chemical structure | Assay system | Class name
CN1C[C@@H]2C[C@H]1CN2c1ccc(-c2cccnc2)cc1 | Neuronal acetylcholine receptor subunit alpha-7 (Rattus norvegicus) | TRUE
O=C(CCCCN1CCOCC1)Nc1ccc(-c2cccnc2F)cc1 | Neuronal acetylcholine receptor subunit alpha-7 (Rattus norvegicus) | TRUE
CN1C[C@@H]2C[C@H]1CN2c1ccc(-c2ccccc2)cc1 | Neuronal acetylcholine receptor subunit alpha-7 (Rattus norvegicus) | TRUE
O=C(CCCCN1CCOCC1)Nc1ccc(-c2ccc3[nH]ccc3c2)cc1 | Neuronal acetylcholine receptor subunit alpha-7 (Rattus norvegicus) | FALSE
O=C(CCCCN1CCOCC1)Nc1ccc(-c2ccncc2)cc1 | Neuronal acetylcholine receptor subunit alpha-7 (Rattus norvegicus) | FALSE

Here's the next entry for you.
Bench note: check whether O=C(CCCCN1CCOCC1)Nc1ccc(-c2cccnc2)cc1 shows EC50 below 300 nM
FALSE

---

target: Neuronal acetylcholine receptor subunit alpha-7 (Rattus norvegicus); assay: Displacement of [3H]epibatidine from rat alpha7 nAChR transfected in HEK293 cells by liquid scintillation counting
Quantity name: Ki (µM)
Give bare numbers, in µM.

Chemical structure | Quantity name | Observed result
O=C(CCCCN1CCCCC1)Nc1cc(-c2ccccc2)[nH]n1 | Ki | 0.66

Specify Ki for CN1CCN(c2ccc(-c3ccccc3)nn2)CC1 and stop.
4.07

---

Assign Ki to each entry below.
biological target: Neuronal acetylcholine receptor; alpha3/beta4 (Rattus norvegicus, UniProt P04757+P12392); assay: Displacement of [3H]epibatidine from rat alpha3beta4 nAChR transfected in HEK293 cells by liquid scintillation counting

Chemical structure | Ki
CN1C[C@@H]2C[C@H]1CN2CCCCNC(=O)c1ccc(-c2cccnc2)cc1 | > 10 µM
O=C(CCCCN1CCOCC1)Nc1ccc(-c2ccc3[nH]ccc3c2)cc1 | > 10 µM

// input: 6 compounds below; output: Ki for each
1. O=C(CCCCN1CCOCC1)Nc1ccc(-c2ccncc2)cc1
2. O=C(CCCCN1CCOCC1)Nc1ccc(-c2cccnc2)cc1
3. c1cncc(-c2ccc(N3CCCCC3)cc2)c1
4. O=C(CCCCN1CCOCC1)Nc1cc(-c2ccccc2)[nH]n1
5. CN1CCN(c2ccc(-c3ccccc3)nn2)CC1
6. c1ccc(-c2ccc(N3CCOCC3)nn2)cc1

1. > 10 µM
2. > 10 µM
3. > 10 µM
4. > 10 µM
5. > 10 µM
6. > 1000 µM

Would you mind listing Ki for each of the following compounds?
1. CN1C[C@@H]2C[C@H]1CN2CCCCC(=O)Nc1ccc(-c2cccnc2)cc1
2. O=C(CCCCN1CCCCC1)Nc1cc(-c2ccccc2)[nH]n1
3. O=C(CCCCN1CC2(COC2)C1)Nc1ccc(-c2cccnc2)cc1
4. CN1C[C@@H]2C[C@H]1CN2c1ccc(-c2ccccc2)cc1
5. O=C(CCCCN1CC2(COC2)C1)Nc1ccc(-c2ccccc2)cc1

["> 100 µM", "> 10 µM", "> 50 µM", "> 10 µM", "> 50 µM"]
